biological target: E-domain of gephyrin (residues 309-750, P1 variant); assay: ITC
Kindly supply the reported Kd values for the records listed here.
One number for each entry, in µM.

6-His-tagged GABAAR α1 cytoplasmic loop (M3-M4), wild type (domain or fragment): 17
6-His-tagged GABAAR α1 T375A cytoplasmic loop (domain or fragment): 36

Shifting focus to the substance that follows.
IN: Report Kd under test system E-domain of gephyrin (residues 309-750, P1 variant) for 6-His-tagged GABAAR α1 T375E cytoplasmic loop (domain or fragment) .
OUT: 183
